- Test system: B cell line, TNFa signaling counterscreen reporter
- ASSAY PROCEDURE: TNFa signaling inhibitors in B cell line, dose response, counter-screen (AID 1259334);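 also: cells stimulated with TNFa after compound preincubation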
The source made the active and inactive calls. Rule as the data show it: active = AC50 below about 11 µM.
We begin with a simple list: items and their reported AC50.

| INPUT SMILES | AC50 |
| --- | --- |
| COc1ccc(C(=O)O/N=C2\C(=O)N(C)c3ccccc32)cc1 | 7.39 µM |
| C[C@H]1CN([C@@H](C)CO)C(=O)c2c(c3ccccc3n2C)-c2ccccc2CO[C@H]1CN(C)C(=O)Nc1cccc(C(F)(F)F)c1 | > 20 µM (inactive) |
| O=C(CNC(=O)c1ccco1)Nc1ccc2c(c1)OCCO2 | > 20 µM (inactive) |
| COC(=O)C[C@](O)(CCCC(C)(C)O)C(=O)O[C@@H]1C(OC)=C[C@]23CCCN2CCc2cc4c(cc2[C@H]13)OCO4 | < 0.0046 µM |
